Origin of the recorded values: the supplement of paper PMC9334596

System: mPer2Luc MEF
protocol_description: PER2::LUC luminescence relative to vehicle control (fold of vehicle); higher = higher PER2::LUC reporter signal
condition_set: time after treatment 24 h; 10 µM
Over roughly 5,300 compounds, “PER2::LUC luminescence relative to vehicle control” has its median near 0.96; the highest 2% begin near 1.3. Only a selection was taken, and the highest values are over-represented in it overall.
measured_quantity: PER2::LUC luminescence

{"molecule": "NC1(C(=O)O)CCc2cc(C(=O)O)ccc21 (stereo unspecified)", "tgt": "mPer2Luc MEF", "data_value": 0.992}
{"molecule": "COc1cccc(C(=O)NCCN2CCN(c3ccc(Cl)cc3)CC2)c1", "tgt": "mPer2Luc MEF", "data_value": 0.833}
{"molecule": "Cn1c2ncnc-2c(O)n(C)c1=O", "tgt": "mPer2Luc MEF", "data_value": 1.14}
{"molecule": "O=C(O)c1ccccc1Nc1ccccc1", "tgt": "mPer2Luc MEF", "data_value": 1.02}
{"molecule": "CC(Nc1ccc(-c2nn[nH]n2)cc1)C(=O)O (racemic)", "tgt": "mPer2Luc MEF", "data_value": 0.971}
{"molecule": "CC(N)(C(=O)O)c1ccc(C(=O)O)cc1 (racemic)", "tgt": "mPer2Luc MEF", "data_value": 0.971}
{"molecule": "C[C@@](N)(C(=O)O)c1ccc(C(=O)O)cc1", "tgt": "mPer2Luc MEF", "data_value": 1.01}
{"molecule": "CC(COc1ccc(/C=C/c2ccccc2)cc1)[N+](C)(C)C (stereo unspecified)", "tgt": "mPer2Luc MEF", "data_value": 0.936}
{"molecule": "CC(C)CCNC(=O)c1ccc2c(c1)nc(Nc1n[nH]c3ccc(-c4ccccc4OC(F)(F)F)cc13)n2C1CCC(O)CC1 (stereo unspecified)", "tgt": "mPer2Luc MEF", "data_value": 0.526}
{"molecule": "CC(C)(C)c1nc2c3cc[nH]c(=O)c3c3cc(F)ccc3c2[nH]1", "tgt": "mPer2Luc MEF", "data_value": 0.802}
{"molecule": "COC(=O)[C@@H]1OC(=O)C2OC23[C@@]1(C)CCC1[C@@]2(C)CCC(=O)C(C)(C)C2C[C@@H](OC(C)=O)[C@]13C (stereo partly specified)", "tgt": "mPer2Luc MEF", "data_value": 0.9}
{"molecule": "CCOC(=O)c1ccc(N(C)c2csc(-c3ccccc3)n2)cc1", "tgt": "mPer2Luc MEF", "data_value": 1.19}
{"molecule": "OC[C@H]1O[C@H](O[C@H]2C(O)[C@@H](O)[C@@H](OC[C@H]3O[C@@H]4O[C@H]5[C@H](O)[C@@H](O)[C@@H](O[C@H]6[C@H](O)[C@@H](O)[C@@H](O[C@H]7[C@H](O)[C@@H](O)[C@@H](O[C@H]8[C@H](O)[C@@H](O)[C@@H](O[C@H]9[C@H](O)[C@@H](O)[C@@H](O[C@H]%10[C@H](O)[C@@H](O)[C@@H](O[C@H]3[C@H](O)[C@H]4O)O[C@@H]%10CO)O[C@@H]9CO)O[C@@H]8CO)O[C@@H]7CO)O[C@@H]6CO)O[C@@H]5CO)O[C@@H]2CO)[C@H](O)[C@@H](O)[C@@H]1O (stereo partly specified)", "tgt": "mPer2Luc MEF", "data_value": 1.08}
{"molecule": "CC1(C)CCC(C)(C)c2cc(NC(=O)c3ccc(C(=O)O)cc3)ccc21", "tgt": "mPer2Luc MEF", "data_value": 1.77}
{"molecule": "O=C(Nc1ccc(C(F)(F)F)cn1)c1cccc2cccnc12", "tgt": "mPer2Luc MEF", "data_value": 1.02}
{"molecule": "O=C(O)CC1CCC(c2ccc(-c3ccc4nc(C(=O)NCc5ccc(OC(F)(F)F)cc5)cn4c3)cc2)CC1 (stereo unspecified)", "tgt": "mPer2Luc MEF", "data_value": 1}
{"molecule": "O=C1CN(/N=C/C=C/c2ccc([N+](=O)[O-])o2)C(=O)N1", "tgt": "mPer2Luc MEF", "data_value": 1.04}
{"molecule": "O=C(O)c1ccc2nc(-c3cc(Cl)cc(Cl)c3)oc2c1", "tgt": "mPer2Luc MEF", "data_value": 1.42}
{"molecule": "Cc1cccc(/C=C/c2ccccc2)n1", "tgt": "mPer2Luc MEF", "data_value": 1.35}
{"molecule": "CC(C)c1cc(-c2n[nH]c(=O)n2-c2ccc3c(ccn3C)c2)c(O)cc1O", "tgt": "mPer2Luc MEF", "data_value": 0.062}
{"molecule": "CCC(C(=S)O[C@]12CCC[C@H](CC1)N2C)c1ccccc1 (stereo partly specified)", "tgt": "mPer2Luc MEF", "data_value": 0.715}
{"molecule": "O=c1c(-c2ccc(O)cc2)coc2cc(O)cc(O)c12", "tgt": "mPer2Luc MEF", "data_value": 1.07}
{"molecule": "COc1ccc(-c2ccc3cc(C(=O)O)ccc3c2)cc1C12CC3CC(CC(C3)C1)C2", "tgt": "mPer2Luc MEF", "data_value": 1.49}
{"molecule": "COc1cc(O)c(C(=O)/C=C/c2ccc(OC)c(O)c2)c(OC)c1", "tgt": "mPer2Luc MEF", "data_value": 1.08}
{"molecule": "Cn1ccc2cc(NC(=O)Nc3cccnc3)ccc21", "tgt": "mPer2Luc MEF", "data_value": 1.15}
{"molecule": "O=C(O)[C@@H]1C[C@H](CP(=O)(O)O)CCN1", "tgt": "mPer2Luc MEF", "data_value": 1.03}
{"molecule": "COc1ccc(-c2coc3c(OC)c(OC)cc(O)c3c2=O)cc1", "tgt": "mPer2Luc MEF", "data_value": 1.01}
{"molecule": "CCCCOc1ccc(C(=O)Nc2ccc(F)cc2F)cc1", "tgt": "mPer2Luc MEF", "data_value": 1.29}
{"molecule": "COc1ccc(-c2coc3cc(O)cc(O)c3c2=O)cc1", "tgt": "mPer2Luc MEF", "data_value": 1.83}
{"molecule": "CCCCCCCC(=O)CCc1ccc(O)c(OC)c1", "tgt": "mPer2Luc MEF", "data_value": 1.04}
{"molecule": "CCCCOc1ccc(CC(=O)NO)cc1", "tgt": "mPer2Luc MEF", "data_value": 1.01}
{"molecule": "CC1=CC(=O)C(C(C)C)=C/C1=N/OC(=O)c1ccccc1C", "tgt": "mPer2Luc MEF", "data_value": 1.11}
{"molecule": "O=C(OCc1ccccc1)c1ccccc1", "tgt": "mPer2Luc MEF", "data_value": 1.05}
{"molecule": "N=C(N)c1ccc(N)cc1", "tgt": "mPer2Luc MEF", "data_value": 0.971}
{"molecule": "COc1ccc2c(=O)c(-c3ccc(O)cc3)coc2c1", "tgt": "mPer2Luc MEF", "data_value": 1.39}
{"molecule": "CC1(C)CCC(C)(C)c2cc(C(=O)Nc3ccc(C(=O)O)cc3)ccc21", "tgt": "mPer2Luc MEF", "data_value": 1.64}
{"molecule": "CCN1CCN(Cc2ccc(NC(=O)c3ccc(C)c(/C=C/c4cnc5[nH]ccc5c4OC)c3)cc2C(F)(F)F)CC1", "tgt": "mPer2Luc MEF", "data_value": 0.349}
{"molecule": "COc1ccccc1C(=O)Nc1cc2c(cc1N1CCCCC1)n(C)c(=O)n2C", "tgt": "mPer2Luc MEF", "data_value": 0.765}
{"molecule": "COc1cc(-c2coc3cc(OC)c(OC)c(OC)c3c2=O)cc(OC)c1OC", "tgt": "mPer2Luc MEF", "data_value": 0.972}
{"molecule": "Cc1cc(NC(=O)Nc2ccc3c(ccn3C)c2)sn1", "tgt": "mPer2Luc MEF", "data_value": 1.59}
{"molecule": "CC(C)COC(=O)c1ccc(N)cc1", "tgt": "mPer2Luc MEF", "data_value": 1.34}
